test: Henry solubility constant Hcp at 293 K (mol/(m3 Pa)); conditions: reference: Murphy et al. (1987)

# STRUCTURE AS SMILES, Henry solubility constant Hcp at 293 K
data = [
    ("Clc1cc(Cl)c(-c2c(Cl)ccc(Cl)c2Cl)c(Cl)c1Cl", 0.11),
    ("Clc1cccc(-c2ccc(Cl)cc2Cl)c1", 0.024),
    ("Clc1ccc(Cl)c(-c2ccccc2Cl)c1", 0.033),
    ("Clc1ccc(-c2c(Cl)ccc(Cl)c2Cl)c(Cl)c1", 0.036),
    ("Clc1ccc(-c2c(Cl)cc(Cl)c(Cl)c2Cl)cc1Cl", 0.23),
    ("Clc1cccc(-c2c(Cl)cccc2Cl)c1Cl", 0.038),
    ("Clc1cccc(-c2c(Cl)cccc2Cl)c1", 0.035),
    ("Clc1ccc(-c2cc(Cl)c(Cl)cc2Cl)c(Cl)c1", 0.046),
    ("Clc1ccc(-c2cccc(Cl)c2Cl)c(Cl)c1", 0.05),
    ("Clc1ccc(-c2cc(Cl)cc(Cl)c2Cl)cc1", 0.034),
    ("Clc1cc(Cl)c(Cl)c(-c2cccc(Cl)c2Cl)c1", 0.06),
    ("Clc1ccc(Cl)c(-c2ccccc2)c1Cl", 0.031),
    ("Clc1ccccc1-c1ccc(Cl)c(Cl)c1Cl", 0.049),
    ("Clc1ccc(Cl)c(-c2cccc(Cl)c2Cl)c1", 0.052),
    ("Clc1cc(-c2c(Cl)ccc(Cl)c2Cl)c(Cl)c(Cl)c1Cl", 0.2),
    ("Clc1ccccc1-c1cccc(Cl)c1Cl", 0.041),
]
